// values below are reported PBM binding z-score
- System: RXRa DBDmut IVT, anti-RXR (DBD mutation: RXRa K156A/R161A, NR concentration 90 nM)
- procedure.summary: PBM binding z-score (relative to random genomic background probes); higher = stronger binding; sequences stand for … in GC…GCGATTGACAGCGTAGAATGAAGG
I'd appreciate a reply containing only the number, no unit.

- ordered.residues: "AGAATGAGGTTACCACAGATCAGGGAAACGCTTG"
  reported.measurement: 1.24
- ordered.residues: "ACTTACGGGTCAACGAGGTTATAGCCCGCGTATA"
  reported.measurement: 2.37

Problem: Any idea what PBM binding z-score was measured for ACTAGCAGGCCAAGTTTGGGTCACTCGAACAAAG ?
Solution: -0.0795

Problem: Then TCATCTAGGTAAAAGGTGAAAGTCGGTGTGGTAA ?
Solution: 1.24

Problem: Then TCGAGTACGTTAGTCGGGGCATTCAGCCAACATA ?
Solution: 3.19

Problem: Then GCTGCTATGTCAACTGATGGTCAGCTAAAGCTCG ?
Solution: 0.137

Problem: Then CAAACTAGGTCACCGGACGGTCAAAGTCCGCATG ?
Solution: 1.41

Problem: Then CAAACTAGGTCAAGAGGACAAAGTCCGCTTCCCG ?
Solution: 1.45

Problem: Then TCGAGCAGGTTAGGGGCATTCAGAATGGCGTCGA ?
Solution: -0.111

Problem: Then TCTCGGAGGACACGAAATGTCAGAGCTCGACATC ?
Solution: 0.78
